# testTarget: Arf6 (Homo sapiens (Human), UniProt P62330)
# Sequence (P62330 14-175): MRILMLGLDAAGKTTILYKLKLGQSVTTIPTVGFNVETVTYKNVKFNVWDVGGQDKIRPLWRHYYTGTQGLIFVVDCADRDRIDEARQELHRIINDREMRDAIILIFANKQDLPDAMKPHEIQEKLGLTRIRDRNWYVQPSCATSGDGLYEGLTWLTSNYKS
# methodNotes: Fluorometric assay for Arf6 nucleotide exchange catalyzed by ARNO Sec7 domain (GTP-BODIPY FL)
# Format: biochemical
# runConditions: 200 nM Arf6 assay; read-out: IC50 (μM) 200 nM Arf6
Recorded log10(IC50) by entry
Hey, these are logged values: log10 of IC50, µM being the unit before logging.

Example compounds with recorded log10(IC50):
[Q] Give the value of log10(IC50) reported for the following: N#Cc1c(SCc2cc(=O)[nH]c(=O)[nH]2)nc2c(c1-c1ccccc1)CC/C2=C\c1ccccc1 [Compound 117]
[A] 0.18

[Q] Give the value of log10(IC50) reported for the following: O=c1cc(-c2ccc([N+](=O)[O-])cc2)[nH]c2c(-c3ccc(Cl)cc3)c(Cc3ccncc3)nn12 [Compound 46]
[A] 0.51

New cases:
[Q] Give the value of log10(IC50) reported for the following: Cc1cccc(N2C(=O)/C(=C/c3cc([N+](=O)[O-])cc(Br)c3O)SC2=S)c1 [Compound 115]
[A] 0.04

[Q] Give the value of log10(IC50) reported for the following: NC(=O)c1ccc(-c2cc(=O)n3nc(Cc4ccccc4)c(-c4ccc(Cl)cc4)c3[nH]2)cc1 [Compound 66]
[A] 0.45

[Q] Give the value of log10(IC50) reported for the following: Cc1nn2c(=O)cc(-c3ccc([N+](=O)[O-])cc3)[nH]c2c1-c1cccc2ccccc12 [Compound 51]
[A] 0.69

[Q] Give the value of log10(IC50) reported for the following: O=c1cc(-c2ccc([N+](=O)[O-])cc2)[nH]c2c(-c3ccccc3)c(Cc3ccccc3)nn12 [Compound 59]
[A] 0.51

[Q] Give the value of log10(IC50) reported for the following: Cc1cccc(-n2c(/C=C/c3cccnc3)nc3ccccc3c2=O)c1 [Compound 122]
[A] 0.67

[Q] Give the value of log10(IC50) reported for the following: O=c1cc(-c2ccc([N+](=O)[O-])cc2O)[nH]c2c(-c3ccc(Cl)cc3)c(Cc3ccccc3)nn12 [Compound 37]
[A] 0.23

Data credit: patent US10849901B2
